- System: T-47D spheroids with HUVEC/MSC, viability
- assayProcedure: Anticancer human tumor T-47D cell line growth inhibition [PI3K];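 also: spheroids exposed to agents for seven days before reading; percent of DMSO vehicle control luminescence so 100% = untreated growth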
- measurementConditions: second compound 0.316 µM; first compound 0.1 µM; hits give low values
Assign viability, T/C to each entry below.
Just the number please, in %, no unit attached.

Please give the measured viability, T/C for this compound: C=CC(=O)N1CCN(c2nc(=O)n(-c3c(C)ccnc3C(C)C)c3nc(-c4c(O)cccc4F)c(F)cc23)C(C)C1 (stereo not given) + CC(Nc1ncnc2nc[nH]c12)c1cc2cccc(Cl)c2c(=O)n1-c1ccccc1 110

Proceed to CNC(=O)c1ccc(N2C(=S)N(c3ccc(C#N)c(C(F)(F)F)c3)C(=O)C2(C)C)cc1F + COc1c(OCCCN2CCOCC2)ccc2c3n(c(=NC(=O)c4cnc(N)nc4)nc12)CCN3 21.8

Proceed to CC(Cn1ccc(-c2ccc(C#N)c(Cl)c2)n1)NC(=O)c1cc(C(C)O)[nH]n1 (stereo not given) + COc1c(OCCCN2CCOCC2)ccc2c3n(c(=NC(=O)c4cnc(N)nc4)nc12)CCN3 15.9

Proceed to CC(Cn1ccc(-c2ccc(C#N)c(Cl)c2)n1)NC(=O)c1cc(C(C)O)[nH]n1 (stereo not given) + Cc1nc(NC(=O)N2CCCC2C(N)=O)sc1-c1ccnc(C(C)(C)C(F)(F)F)c1 101

Proceed to Cn1ncnc1[C@H]1c2n[nH]c(=O)c3cc(F)cc(c23)N[C@@H]1c1ccc(F)cc1 + Cc1nc(NC(=O)N2CCCC2C(N)=O)sc1-c1ccnc(C(C)(C)C(F)(F)F)c1 86.5

Source listed as PubChem BioAssay AID1963959.
